Cited source: the RNAGym collection of RNA variant scans (doi:10.1038/s41586-018-0170-7)

B1: tRNA (parent)
chain: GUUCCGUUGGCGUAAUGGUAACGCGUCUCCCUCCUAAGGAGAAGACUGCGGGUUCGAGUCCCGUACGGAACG

- Variants of: B1
- experiment: yeast fitness, log relative to wild type (ln ratio); higher = fitter; tRNA-Arg(CCU), competitive growth, 37 C, 1 M NaCl

{"mutation-spec": "G1A U2C C46U A70U C71U", "yeast fitness (ln)": -0.0299}
{"mutation-spec": "U2C G6A A70U C71U", "yeast fitness (ln)": -0.0821}
{"mutation-spec": "G1A C46U C66U A69G A70G C71U", "yeast fitness (ln)": -0.158}
{"mutation-spec": "U2G C27U C66U A69G A70U C71U", "yeast fitness (ln)": -0.433}
{"mutation-spec": "G6U C46U C66U A69G A70U C71U", "yeast fitness (ln)": -0.434}
{"mutation-spec": "G1A U2G G6U C46U C66U A69G C71U", "yeast fitness (ln)": -0.466}
{"mutation-spec": "G6A C27U A43C A70U", "yeast fitness (ln)": -0.263}
{"mutation-spec": "U2C G6U C66A A69G A70G C71U", "yeast fitness (ln)": -0.00896}
{"mutation-spec": "G1A G6U C27U A43C A70U", "yeast fitness (ln)": -0.331}
{"mutation-spec": "U2C G6U C27U A43C A70G C71U", "yeast fitness (ln)": -0.324}
{"mutation-spec": "G1A G6U C27U A43C C46U C66A A69G C71U", "yeast fitness (ln)": -0.671}
{"mutation-spec": "U2G G6U A43C C66A A70G", "yeast fitness (ln)": -0.137}
{"mutation-spec": "G6A C66U", "yeast fitness (ln)": -0.0046}
{"mutation-spec": "U2G A43C C46U C66A A69G C71U", "yeast fitness (ln)": -0.302}
{"mutation-spec": "G1A U2C G6A C27U A70G C71U", "yeast fitness (ln)": -0.273}
{"mutation-spec": "C27U A43C C46U C66U C71U", "yeast fitness (ln)": -0.253}
{"mutation-spec": "G1A U2G G6A A43C C46U C66U A70G C71U", "yeast fitness (ln)": -0.266}
{"mutation-spec": "U2G A43C C66A", "yeast fitness (ln)": -0.0672}
{"mutation-spec": "C27U C46U C66A A70U C71U", "yeast fitness (ln)": -0.13}
{"mutation-spec": "G1A U2G C46U C66U A70U C71U", "yeast fitness (ln)": -0.185}
{"mutation-spec": "G1A G6A C46U A69G A70G C71U", "yeast fitness (ln)": -0.129}
{"mutation-spec": "C27U A70U C71U", "yeast fitness (ln)": -0.149}
